tested on: PRMT1 (protein arginine N-methyltransferase 1); assay: PRMT1 binders on small-molecule microarrays, primary screen, biochemical, small-molecule microarray, 635 nm fluorescence (AID 1088); conditions: small-molecule microarray binding, higher = more signal
Task for the reader: assign each of the following compounds its reported composite z-score.
One number for each entry.

Consider the following illustrative entries.
[N-]=[N+]=NCc1ccccc1C[C@@]1(C(N)=O)N=C(c2ccc(OCCCO)cc2)O[C@@H]1c1ccccc1N=[N+]=[N-] = 1.28
COCCCNC(=O)[C@@]1(Cc2ccccc2I)c2ccccc2C(=O)N(Cc2ccccc2OC)[C@H]1c1ccc(CO)cc1 = 1.56
C=C1C(=O)C=C2CN(C(=O)c3ccccc3)[C@@](Cc3ccc(F)cc3)(C(=O)OC)[C@@H]12 = 0.356
[N-]=[N+]=NCc1ccccc1[C@H]1OC(c2ccc(OCCCO)cc2)=N[C@@]1(Cc1ccccc1N=[N+]=[N-])C(N)=O = 1.56
COc1ccc([Si](C)(C)[C@H]2[C@H](CC(=O)N(CCO)Cc3ccccc3)O[C@@]3(C(=O)N(Cc4cccc(N5CCCCC5=O)c4)c4ccccc43)[C@@H]2C)cc1 = 1.45
C[C@]1(C(=O)NC2CC2)c2ccccc2C(=O)N(Cc2cc(F)cc(C(F)(F)F)c2)[C@H]1c1ccc(CO)cc1 = 1.52
CC(C)c1ccc(NN2C(C(O)C3CCCCC3)C=CC3C(=O)N(c4ccccc4)C(=O)C32)cc1 (stereo not given) = 1.02
C=C(/C=C\CNS(=O)(=O)c1ccc(C)cc1)[C@H](O)[C@H]1CCCN1S(=O)(=O)c1ccccc1[N+](=O)[O-] = -0.196
COC(=O)C(CC#Cc1ccc2c(c1)[C@]1(C(=O)N2)[C@H](c2ccc(OCCO)cc2)N2[C@H](c3ccccc3)[C@H](c3ccccc3)OC(=O)[C@H]2[C@@H]1C(N)=O)C(=O)OC = 1.06
COc1cccc(C)c1NC(=O)O[C@H]1[C@H](OC(=O)Nc2ccc3c(c2)OCO3)[C@H](OC(=O)Nc2ccc3c(c2)OCO3)[C@@H](OC)O[C@@H]1CO = 1.55

Provide the reported composite z-score of each entry below, same order.
1. Cc1c(NC(=O)/C(C#N)=C/C=C/c2ccc([N+](=O)[O-])cc2)c(=O)n(-c2ccccc2)n1C
2. Cc1ccc(S[C@]2(C(=O)NCc3ccccc3)CC(=O)N(Cc3ccccc3Cl)[C@@H]2c2ccc(CO)cc2)cc1
3. COC(=O)[C@@]1(Cc2ccc(OC)cc2)[C@@H]2[C@@H](CC(=O)[C@H]2CC(=O)C(=O)N(C)C)CN1C(=O)c1ccccc1

Result string:
1. 1.49
2. 1.17
3. 0.707

Provide the reported composite z-score of each entry below, same order.
1. COc1ccc([Si](C)(C)[C@@H]2[C@@H](CC(=O)N3Cc4ccccc4C[C@H]3CO)O[C@]3(C(=O)N(Cc4ccc(I)cc4)c4ccccc43)[C@H]2C)cc1
2. CCOC(=O)C=C1C[C@@H](c2cccc([N+](=O)[O-])c2)O[C@@H](c2cccc([N+](=O)[O-])c2)O1

Result string:
1: 1.57; 2: 1.5

Hey, just so you know, these numbers are from PubChem BioAssay.
